molecular target: recombinant human plasminogen activator inhibitor-1 (PAI-1) (Homo sapiens); assay: modification of the Primary Screen for PAI-1 Inhibition; settings: modification of the Primary Screen (footnote b); residual tPA activity, Spectrozyme-tPA
Sequence (P05121 24-402): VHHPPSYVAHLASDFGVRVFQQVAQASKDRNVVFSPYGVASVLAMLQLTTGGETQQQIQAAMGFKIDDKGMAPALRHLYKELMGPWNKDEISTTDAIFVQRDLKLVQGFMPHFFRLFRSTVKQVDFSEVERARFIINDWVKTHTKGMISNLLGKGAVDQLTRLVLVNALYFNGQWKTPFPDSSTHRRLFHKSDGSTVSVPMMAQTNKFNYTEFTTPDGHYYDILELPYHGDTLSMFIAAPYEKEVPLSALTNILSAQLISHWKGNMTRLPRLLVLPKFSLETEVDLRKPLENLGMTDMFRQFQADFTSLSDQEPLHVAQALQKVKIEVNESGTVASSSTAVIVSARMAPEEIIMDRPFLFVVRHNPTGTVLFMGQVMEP
pIC50: −log10 of the molar value.
Reported pIC50 by item:

{"columns": ["line.notation", "pIC50"],
 "data": [
  ["CCCCCc1c(-c2ccc3c(Br)c(OCc4nnn[nH]4)ccc3c2)n(C)c2ccccc12", 4.76],
  ["CCCCCc1c(-c2ccc3cc(OCc4nnn[nH]4)ccc3c2)n(C(C)=O)c2ccccc12", 5.04],
  ["CCCCCc1c(-c2ccc3c(Br)c(OCc4nnn[nH]4)ccc3c2)n(Cc2ccccc2)c2ccccc12", 5.06]
]}

====

{"columns": ["line.notation", "melting point"],
 "data": [
  ["CCCCCc1c(-c2ccc3c(Br)c(OCC(=O)O)ccc3c2)n(C)c2ccccc12", "> 73 °C (dec.)"],
  ["CCCCCc1c(-c2ccc3c(Br)c(OCc4nnn[nH]4)ccc3c2)n(C)c2ccccc12", "> 125 °C (dec.)"],
  ["CCCCCc1c(-c2ccc3cc(OCc4nnn[nH]4)ccc3c2)n(Cc2ccccc2C(F)(F)F)c2ccccc12", "> 100 °C (dec.)"],
  ["CCCCCc1c(-c2ccc3cc(OCc4nnn[nH]4)ccc3c2)n(C(C)=O)c2ccccc12", "> 95 °C (dec.)"],
  ["CCCCCc1c(-c2ccc3cc(OCc4nnn[nH]4)ccc3c2)n(Cc2ccc(C(C)(C)C)cc2)c2ccccc12", "> 95 °C (dec.)"],
  ["CCCCCc1c(-c2ccc3cc(OCc4nnn[nH]4)ccc3c2)n(C)c2ccccc12", "120 to 122 °C"],
  ["CCCCCc1c(-c2ccc3c(Br)c(OCc4nnn[nH]4)ccc3c2)n(Cc2ccc(C(C)(C)C)cc2)c2ccccc12", "> 90 °C (dec.)"],
  ["CCCCCc1c(-c2ccc3c(Br)c(OCc4nnn[nH]4)ccc3c2)n(Cc2ccccc2)c2ccccc12", "> 70 °C (dec.)"],
  ["CCCCCc1c(-c2ccc3c(Br)c(OCc4nnn[nH]4)ccc3c2)n(Cc2ccccc2C(F)(F)F)c2ccccc12", "> 85 °C (dec.)"],
  ["CCCCCc1c(-c2ccc3c(Br)c(OCc4nnn[nH]4)ccc3c2)n(C(C)=O)c2ccccc12", "> 79 °C (dec.)"]
]}
